The reader will find reported Phage binding ELISA signal, Anti-PSMA Fab values listed item by item below.
molecular target: T1, PSMA Fab (006 PSMA Fab); experiment: clonal phage ELISA; biotinylated PSMA Fab on neutravidin plate, blocking buffer alone; anti-M13-HRP detection;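 also: clonal phage applied as crude supernatants to wells preincubated with blocking buffer, binding read by ELISA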
T1 construct: also called Anti-PSMA Fab; anti-PSMA Fab
endpoint_name: Phage binding ELISA signal, Anti-PSMA Fab

INSERT INTO assay_data (binder, value) VALUES
  ('FVNWCIPTWMCPEI [Phage-2314]', 1.47),
  ('HSHWCIPPWMCTFV [Phage-2324]', 1.45),
  ('VEKLCIPHWMCEAS [Phage-2325]', 1.45),
  ('VDKWCIPAWMCVSA [Phage-2328]', 1.45),
  ('WDHWCTPAWMCFNA [Phage-2323]', 1.45),
  ('GPTLCIPAWMCSGM [Phage-2326]', 1.45),
  ('VSNWCIPRGLCTQM [Phage-2320]', 1.45),
  ('LEKWCIPTWMCEMT [Phage-2322]', 1.45),
  ('LDKWCIPPWMCETV [Phage-2321]', 1.45),
  ('GMLACTPAWMCEGF [Phage-2316]', 1.47);

Values compiled from patent US20260242478A1.
